biological target: Ascaris suum succinate-ubiquinone reductase (mitochondrial complex II) (Ascaris suum, UniProt O44074+P92506+P92507); construct: from tissue; host or cells: mitochondria from adult Ascaris suum muscle; experiment: In vitro inhibitory activity on Ascaris suum succinate-ubiquinone reductase (mitochondrial complex II); assay type: biochemical
Sequence (O44074 22-282): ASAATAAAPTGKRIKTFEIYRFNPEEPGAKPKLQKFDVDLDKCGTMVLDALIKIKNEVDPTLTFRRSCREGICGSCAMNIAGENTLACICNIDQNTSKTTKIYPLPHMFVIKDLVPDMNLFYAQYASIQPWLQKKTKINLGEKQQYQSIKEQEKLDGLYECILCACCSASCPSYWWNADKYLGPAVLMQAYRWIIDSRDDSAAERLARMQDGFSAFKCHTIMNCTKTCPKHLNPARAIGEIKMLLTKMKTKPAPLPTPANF
Sequence (P92506 32-188): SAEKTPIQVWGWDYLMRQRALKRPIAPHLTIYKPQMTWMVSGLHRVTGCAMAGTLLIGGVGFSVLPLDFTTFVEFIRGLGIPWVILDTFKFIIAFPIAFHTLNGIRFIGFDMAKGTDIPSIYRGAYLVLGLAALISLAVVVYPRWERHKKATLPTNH
Sequence (P92507 26-156): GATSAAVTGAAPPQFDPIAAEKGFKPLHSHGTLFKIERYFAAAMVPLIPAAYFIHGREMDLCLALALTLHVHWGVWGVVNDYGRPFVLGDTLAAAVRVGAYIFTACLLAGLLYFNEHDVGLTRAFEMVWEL
Sequence (Q33862 19-645 partner): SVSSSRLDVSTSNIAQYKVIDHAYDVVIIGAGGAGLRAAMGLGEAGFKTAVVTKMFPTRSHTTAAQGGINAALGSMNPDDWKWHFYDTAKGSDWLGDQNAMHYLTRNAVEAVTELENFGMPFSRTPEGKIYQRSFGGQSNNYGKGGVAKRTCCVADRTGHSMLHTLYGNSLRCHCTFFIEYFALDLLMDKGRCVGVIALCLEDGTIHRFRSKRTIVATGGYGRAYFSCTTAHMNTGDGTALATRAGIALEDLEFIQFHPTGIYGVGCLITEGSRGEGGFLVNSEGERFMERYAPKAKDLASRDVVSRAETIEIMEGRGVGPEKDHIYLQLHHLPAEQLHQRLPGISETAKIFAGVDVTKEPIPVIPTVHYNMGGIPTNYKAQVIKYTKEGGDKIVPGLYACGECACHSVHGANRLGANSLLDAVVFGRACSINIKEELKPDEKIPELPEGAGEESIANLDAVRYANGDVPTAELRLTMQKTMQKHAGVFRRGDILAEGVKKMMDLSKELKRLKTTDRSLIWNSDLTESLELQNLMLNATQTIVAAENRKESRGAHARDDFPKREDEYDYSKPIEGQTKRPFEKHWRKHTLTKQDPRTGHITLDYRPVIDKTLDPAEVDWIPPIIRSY
measure: pIC50
Lab note — pIC50 values are minus log10 of concentrations in M.

O=C(NCCc1ccc(Cl)cc1Cl)C1=C(C(F)(F)F)OCCS1 : 8.14
O=C(NCCc1ccc(-c2ccc(OC(F)(F)F)cc2)cc1F)c1nccnc1Cl : 8.70

Please find the next compound below.
State the recorded pIC50 for this entry: CC(Cc1ccc(Cl)cc1Cl)NC(=O)c1nccnc1I (stereo not drawn)
8.64

###

This section presents molecules with their documented log10 IC50 values.
target: Ascaris suum succinate-ubiquinone reductase (mitochondrial complex II) (Ascaris suum, UniProt O44074+P92506+P92507); construct: from tissue; host or cells: mitochondria from adult Ascaris suum muscle; experiment: In vitro inhibitory activity on Ascaris suum succinate-ubiquinone reductase (mitochondrial complex II); assay type: biochemical; conditions: mitochondria from adult Ascaris suum muscle, UQ2 60 μM, potassium succinate 10 mM, 25° C., absorbance at 278 nm; read-out: Ascaris suum IC50 value (A)
Parameter value (number): base-10 log of IC50 in nM.

Known log10 IC50 results, listed for orientation:
O=C(NCCc1ccc(Cl)cc1F)c1nccnc1C(F)(F)F : 0.69
C[C@@H](COc1ncc(C(F)(F)F)cc1Cl)NC(=O)c1cccnc1Cl : 1.30
O=C(NCCc1ccc(C(F)(F)F)cc1Cl)c1nccnc1C(F)(F)F : 0.11
O=C(NCC1(c2ccc(Cl)cc2Cl)CC1)c1nccnc1C(F)(F)F : 0.18

Can you look up the measured log10 IC50 of CC(Cc1ccc(Cl)cc1Cl)NC(=O)c1nccnc1Cl (stereo not shown) for me?
0.52

And the next one, O=C(NCCc1ccc(Cl)cc1Cl)c1sccc1C(F)(F)F ?
0.04

###

target: Ascaris suum succinate-ubiquinone reductase (mitochondrial complex II) (Ascaris suum, UniProt O44074+P92506+P92507); construct: from tissue; host or cells: mitochondria from adult Ascaris suum muscle; test: In vitro inhibitory activity on Ascaris suum succinate-ubiquinone reductase (mitochondrial complex II); format: biochemical; settings: mitochondria from adult Ascaris suum muscle, UQ2 60 μM, potassium succinate 10 mM, 25° C., absorbance at 278 nm; read-out: Ascaris suum IC50 value (A)
I'd appreciate it if you marked entries satisfied when IC50 is lower than 4 nM and not satisfied when it is not.

Find out if reported IC50 for O=C(NCCc1cc(F)c(Cl)cc1F)c1nccnc1C(F)(F)F is less than 4 nM
satisfied

Can you check C[C@@H](Cn1nc(C(F)(F)F)c(Cl)c1Cl)NC(=O)c1nccnc1C(F)(F)F next?
not satisfied

Again, but for C[C@@H](Cn1nc(Br)c(Br)c1Br)NC(=O)c1cccnc1C(F)(F)F
not satisfied

// repeat for O=C(NCCc1ccc(Oc2ncc(C(F)(F)F)cc2Cl)cc1Cl)c1cccnc1Cl and report
satisfied

Cc1cccnc1C(=O)NCCc1ccc(Cl)cc1Cl , same question.
not satisfied

Input O=C(NCCc1ccc(-c2ccc(OC(F)(F)F)cc2)cc1Cl)c1nccnc1C(F)(F)F
satisfied

O=C(NCCc1ccc(Cl)cc1Cl)c1cccnc1C(F)(F)F ?
not satisfied
